These measurements were taken from paper PMC2756588.

Documented SPOT intensity across a set of binders
Target: GST
Test: SPOT array
Conditions: median of control spots 978
Form field (numeric): enter value without unit.

[
  {
    "binder": "GPPPPLPPPLFPSSS",
    "reported property": "SPOT intensity",
    "data value": 0
  },
  {
    "binder": "RLSFFFPLDPAYIRN",
    "reported property": "SPOT intensity",
    "data value": 1
  },
  {
    "binder": "FYNRTAFQLPGDARV",
    "reported property": "SPOT intensity",
    "data value": 0
  },
  {
    "binder": "PKMLPIPSKPTLFDL",
    "reported property": "SPOT intensity",
    "data value": 1
  },
  {
    "binder": "QHQQRQPKRPKRYSL",
    "reported property": "SPOT intensity",
    "data value": 8
  },
  {
    "binder": "KWVRRPKLMTPLTFS",
    "reported property": "SPOT intensity",
    "data value": 1
  },
  {
    "binder": "HHKRRPTTIDVPGLT",
    "reported property": "SPOT intensity",
    "data value": 0
  },
  {
    "binder": "RVTRKRPREPKSTND",
    "reported property": "SPOT intensity",
    "data value": 2
  },
  {
    "binder": "ATKSASPTLPTRRSR",
    "reported property": "SPOT intensity",
    "data value": 1
  },
  {
    "binder": "KDKKTKPTPPPKPSH",
    "reported property": "SPOT intensity",
    "data value": 3
  }
]

Prompt: Give its SPOT intensity value. Item: ERPKRRAPPPVPKKP
Completion: 0

Prompt: Give its SPOT intensity value. Item: SRSKPLPLTPNSKYN
Completion: 0

Prompt: Give its SPOT intensity value. Item: MARRRLPDRPPNGIG
Completion: 0

Prompt: Give its SPOT intensity value. Item: IAPIPMPKPNPTHIS
Completion: 0

Prompt: Give its SPOT intensity value. Item: IPSRPAPKPPSSASA
Completion: 0
